Data origin: the supplement of paper PMC10065799

Target: EPHB2 (UniProt P29323)
Sequence (P29323 whole entry, looked up): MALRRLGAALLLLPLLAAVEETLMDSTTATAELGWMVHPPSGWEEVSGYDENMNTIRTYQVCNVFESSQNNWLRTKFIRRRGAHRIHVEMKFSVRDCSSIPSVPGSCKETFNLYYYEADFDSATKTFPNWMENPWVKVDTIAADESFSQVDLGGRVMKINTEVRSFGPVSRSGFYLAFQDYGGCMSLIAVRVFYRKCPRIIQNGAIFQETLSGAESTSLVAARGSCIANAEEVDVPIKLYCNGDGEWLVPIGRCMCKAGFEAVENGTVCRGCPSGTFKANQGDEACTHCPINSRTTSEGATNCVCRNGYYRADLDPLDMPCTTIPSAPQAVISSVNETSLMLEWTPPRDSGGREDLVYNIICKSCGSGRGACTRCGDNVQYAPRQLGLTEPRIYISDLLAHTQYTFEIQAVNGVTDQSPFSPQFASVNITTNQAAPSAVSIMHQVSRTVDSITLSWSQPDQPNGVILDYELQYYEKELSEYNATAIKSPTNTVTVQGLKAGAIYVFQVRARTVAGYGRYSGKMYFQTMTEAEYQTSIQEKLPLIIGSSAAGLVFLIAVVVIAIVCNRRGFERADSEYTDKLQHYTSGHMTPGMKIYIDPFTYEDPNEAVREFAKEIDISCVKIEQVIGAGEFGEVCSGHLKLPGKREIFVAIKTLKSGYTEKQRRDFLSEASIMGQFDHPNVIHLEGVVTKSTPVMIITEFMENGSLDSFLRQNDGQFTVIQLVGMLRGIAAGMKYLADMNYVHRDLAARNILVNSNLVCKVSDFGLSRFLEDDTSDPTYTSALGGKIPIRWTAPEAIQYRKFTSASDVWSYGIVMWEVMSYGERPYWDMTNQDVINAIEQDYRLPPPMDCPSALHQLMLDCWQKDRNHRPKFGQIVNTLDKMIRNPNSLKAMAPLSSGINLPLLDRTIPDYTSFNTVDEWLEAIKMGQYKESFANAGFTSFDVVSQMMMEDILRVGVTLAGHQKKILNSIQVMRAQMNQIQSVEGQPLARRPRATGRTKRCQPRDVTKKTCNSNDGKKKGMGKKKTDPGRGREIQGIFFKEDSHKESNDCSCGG
Assay: phosphorylation enrichment, bacterial display (enrichment ratio); higher = better substrate or ligand; peptides without Tyr show the background
Endpoint Label: phosphorylation enrichment
Just the number.

# annotated cases, reported phosphorylation enrichment shown
Seq	phosphorylation enrichment
SASSSYSRSRS [SRRM4_Y549_R547S]	0.487
ETKKQYDSFTY [TMED3_Y85]	0.493
EPVSDYINANI [PTPN11_Y304]	0.495

# next sequence below
Q) Look up and state reported phosphorylation enrichment for ISDNAYQYMLT [MYH7_Y162]
A) 0.496

----------
In this section, each of the sequences is paired with its reported SH2 binding enrichment.
Biological target: SHP2-C SH2;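 further: peptide library displayed on the E. coli surface as eCPX fusions, selected cells deep-sequenced, score is each peptide's frequency after selection divided by its frequency in the input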
Assay: SH2 binding enrichment of the phosphorylated peptide, bacterial display (enrichment ratio); higher = better substrate or ligand; peptides without Tyr show the background
Answer with a number only.

Seq	Target	SH2 binding enrichment
QRDSSYYWEIE [RAF1_Y340]	SHP2-C SH2	0.797
AEPDIYQEKLS [USP54_Y1233]	SHP2-C SH2	0.785

Q) # return recorded SH2 binding enrichment for entry IVEFAYNDKAV [PUM3_Y259_I264V_YF]
A) 0.787
